The origin of these recorded values is patent US20080200448A1.

tested_system: P2Y12 receptor (Homo sapiens, UniProt Q9H244)
Construct: expressed in transfected cells; host or cells: CHO cells (membrane preparation)
Sequence (Q9H244 whole entry): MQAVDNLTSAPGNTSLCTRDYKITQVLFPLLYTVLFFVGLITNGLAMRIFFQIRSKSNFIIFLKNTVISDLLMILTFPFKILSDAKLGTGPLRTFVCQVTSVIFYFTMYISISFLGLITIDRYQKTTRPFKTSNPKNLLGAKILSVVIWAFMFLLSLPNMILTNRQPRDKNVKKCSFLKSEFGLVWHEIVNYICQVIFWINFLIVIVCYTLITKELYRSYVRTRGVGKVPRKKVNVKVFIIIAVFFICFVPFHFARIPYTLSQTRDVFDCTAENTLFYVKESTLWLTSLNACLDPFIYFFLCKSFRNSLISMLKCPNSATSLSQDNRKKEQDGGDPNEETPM
protocol_details: Functional inhibition of 2-Me-S-ADP induced P2Y12 signalling (35S-GTPγS binding, cell membranes)
Format: biochemical
measurement_context: 35S-GTPγS assay, membranes, EC80 concentration of 2-methyl-thio-adenosine diphosphate, 30° C. for 45 min; read-out: GTPγS (IC50 μM)
readout: IC50 (µM)

Example entries begin here.
[
  {
    "record_smiles": "CCOC(=O)c1cc(C#N)c(N2CCC(C(=O)NS(=O)(=O)CC3CCCC3)CC2)nc1CN1CCCC1=O",
    "quantitative_readout": 0.017
  },
  {
    "record_smiles": "CCOC(=O)c1cc(C#N)c(N2CCC(C(=O)NS(=O)(=O)N(C)c3ccc(F)cc3)CC2)nc1CN1CCCC1=O",
    "quantitative_readout": 0.0073
  }
]

[A] CC(C)OC(=O)c1cc(C#N)c(N2CCC(C(=O)NS(=O)(=O)Cc3ccc(C(F)(F)F)cc3)CC2)nc1CN1CCCC1=O
[B] CCOC(=O)c1cc(C#N)c(N2CCC(C(=O)NS(=O)(=O)Cc3ccccc3)CC2)nc1SCC(=O)N1CCC1
Parameter check: reported IC50 is higher for which label, A or B ? Reply with the label of the item you choose. A
(A: 0.02 µM, B: 0.013 µM)

====

tested_system: P2Y12 receptor (Homo sapiens, UniProt Q9H244)
Construct: expressed in transfected cells; host or cells: CHO cells (membrane preparation)
protocol_details: Functional inhibition of 2-Me-S-ADP induced P2Y12 signalling (35S-GTPγS binding, cell membranes)
Type: biochemical
measurement_context: 35S-GTPγS assay, membranes, EC80 concentration of 2-methyl-thio-adenosine diphosphate, 30° C. for 45 min; read-out: GTPγS (IC50 μM)
readout: IC50 (µM)

Example entries begin here.
[
  {
    "molecule": "CCOC(=O)c1cc(C#N)c(N2CCC(C(=O)NS(=O)(=O)Cc3ccccc3)CC2)nc1OCCCC(C)=O [Example 121]",
    "tested_system": "P2Y12 receptor (Homo sapiens, UniProt Q9H244)",
    "IC50 [µM]": 0.017
  },
  {
    "molecule": "CCOC(=O)CSc1nc(N2CCC(C(=O)NS(=O)(=O)Cc3ccc(F)cc3Cl)CC2)c(C#N)cc1C(=O)OCC [Example 108]",
    "tested_system": "P2Y12 receptor (Homo sapiens, UniProt Q9H244)",
    "IC50 [µM]": 0.072
  },
  {
    "molecule": "CCOC(=O)c1cc(C#N)c(N2CCC(C(=O)NS(=O)(=O)Cc3ccccc3)CC2)nc1OCC(=O)NC [Example 25]",
    "tested_system": "P2Y12 receptor (Homo sapiens, UniProt Q9H244)",
    "IC50 [µM]": 0.075
  },
  {
    "molecule": "CCOC(=O)c1cc(C#N)c(N2CCC(C(=O)NS(=O)(=O)Cc3ccc(C)cc3)CC2)nc1CN1CCCCC1=O [Example 63]",
    "tested_system": "P2Y12 receptor (Homo sapiens, UniProt Q9H244)",
    "IC50 [µM]": 0.014
  }
]

[1] CCOC(=O)CSc1nc(N2CCC(C(=O)NS(=O)(=O)Cc3ccc(Cl)cc3Cl)CC2)c(C#N)cc1C(=O)OCC [Example 109]
[2] Cc1ccc(CS(=O)(=O)NC(=O)C2CCN(c3nc(CN4CCCC4=O)c(C(=O)OC(C)C)cc3C#N)CC2)cc1 [Example 45]
[3] CCOC(=O)c1cc(C#N)c(N2CCC(C(=O)N(CC(=O)O)S(=O)(=O)Cc3ccccc3)CC2)nc1C [Example 1]
Rank by IC50 (largest to smallest). Show the ranking through the labels, in the order asked for. 3, 1, 2
(3: 0.093 µM, 1: 0.062 µM, 2: 0.019 µM)

====

tested_system: P2Y12 receptor (Homo sapiens)
Construct: expressed in transfected cells; host or cells: CHO cells (membrane preparation)
protocol_details: Functional inhibition of 2-Me-S-ADP induced P2Y12 signalling (35S-GTPγS binding, cell membranes)
Assay type: biochemical
measurement_context: 35S-GTPγS assay, membranes, EC80 concentration of 2-methyl-thio-adenosine diphosphate, 30° C. for 45 min; read-out: GTPγS (IC50 μM)
readout: IC50 (µM)

Example entries begin here.
[
  {
    "record_smiles": "CCOC(=O)c1cc(C#N)c(N2CCC(C(=O)NS(=O)(=O)Nc3ccccc3)CC2)nc1CN1CCCC1=O",
    "quantitative_readout": 0.03
  },
  {
    "record_smiles": "CCOC(=O)c1cc(C#N)c(N2CC(C(=O)NS(=O)(=O)Cc3ccccc3)C2)nc1COC(C)=O",
    "quantitative_readout": 0.076
  },
  {
    "record_smiles": "CCOC(=O)c1cc(C#N)c(N2CCC(C(=O)NS(=O)(=O)Cc3ccccc3)CC2)nc1CN(C)C",
    "quantitative_readout": 0.282
  },
  {
    "record_smiles": "CCOC(=O)c1cc(C#N)c(N2CCC(C(=O)NS(=O)(=O)Cc3ccc(SC(F)(F)F)cc3)CC2)nc1CN1CCCC1=O",
    "quantitative_readout": 0.033
  },
  {
    "record_smiles": "CCOC(=O)c1cc(C#N)c(N2CC(C(=O)NS(=O)(=O)Cc3ccccc3)C2)nc1CN1CCCC1=O",
    "quantitative_readout": 0.019
  }
]

[A] CCOC(=O)c1cc(C#N)c(N2CCC(C(=O)NS(=O)(=O)Cc3ccccc3)CC2)nc1SCC(=O)O
[B] CCOC(=O)c1cc(Cl)c(N2CCC(C(=O)NS(=O)(=O)Cc3ccccc3)CC2)nc1SCCNC(C)=O
Parameter check: reported IC50 is higher for which label, A or B ? Reply with the label of the item you choose. B

====

tested_system: P2Y12 receptor (Homo sapiens, UniProt Q9H244)
Construct: expressed in transfected cells; host or cells: CHO cells (membrane preparation)
protocol_details: Functional inhibition of 2-Me-S-ADP induced P2Y12 signalling (35S-GTPγS binding, cell membranes)
Format: biochemical
measurement_context: 35S-GTPγS assay, membranes, EC80 concentration of 2-methyl-thio-adenosine diphosphate, 30° C. for 45 min; read-out: GTPγS (IC50 μM)
Method: Functional inhibition of- the P2Y12 receptor can be measured by in vitro assays using cell membranes from P2Y12 transfected CHO-cells, the methodology is indicated below. Functional inhibition of 2-Me-S-ADP induced P2Y12 signalling: 5 μg of membranes were diluted in 200 μl of 200 mM NaCl, 1 mM MgCl2, 50 mM HEPES (pH 7.4), 0.01% BSA, 30 μg/ml saponin and 10 μM GDP. […]
readout: IC50 (µM)

[
  {
    "record_smiles": "CCOC(=O)CSc1nc(N2CCC(C(=O)NS(=O)(=O)CC3CCCC3)CC2)c(C#N)cc1C(=O)OCC",
    "IC50 / µM": 0.053
  }
]

[1] CC(C)OC(=O)c1cc(Cl)c(N2CCC(C(=O)NS(=O)(=O)Cc3ccccc3)CC2)nc1CN1CCCC1=O
[2] CCOC(=O)c1cc(C#N)c(N2CCC(C(=O)NS(=O)(=O)Cc3ccccc3)CC2)nc1SCCO
[3] CCOC(=O)c1cc(Cl)c(N2CCC(C(=O)NS(=O)(=O)Cc3ccc(C)cc3)CC2)nc1CN1CCCC1=O
[4] CCOC(=O)c1cc(C#N)c(N2CCC(C(=O)NS(=O)(=O)Cc3ccccc3)CC2)nc1OCC(=O)N(C)C
Please produce an ascending ranking of these molecules based on IC50. Show the ranking through the labels, in the order asked for. 2, 3, 4, 1
(2: 0.016 µM, 3: 0.037 µM, 4: 0.065 µM, 1: 0.178 µM)

[I] CCOC(=O)c1cc(C#N)c(N2CCC(C(=O)NS(=O)(=O)Cc3ccccc3)CC2)nc1CN1C(=O)CCC1=O
[II] CCOC(=O)c1cc(C#N)c(N2CCC(C(=O)NS(=O)(=O)Cc3ccccc3)CC2)nc1CSCC(=O)N(C)C
Decide: I or II , by lowest recorded IC50. Reply with the label of the item you choose. I

====

tested_system: P2Y12 receptor (Homo sapiens, UniProt Q9H244)
Construct: expressed in transfected cells; host or cells: CHO cells (membrane preparation)
protocol_details: Functional inhibition of 2-Me-S-ADP induced P2Y12 signalling (35S-GTPγS binding, cell membranes)
Format: biochemical
measurement_context: 35S-GTPγS assay, membranes, EC80 concentration of 2-methyl-thio-adenosine diphosphate, 30° C. for 45 min; read-out: GTPγS (IC50 μM)
readout: IC50 (µM)

[
  {
    "record_smiles": "CCOC(=O)c1cc(C#N)c(N2CCC(C(=O)NS(=O)(=O)Cc3ccccc3)CC2)nc1CN1CCCCC1=O",
    "IC50 / µM": 0.03
  },
  {
    "record_smiles": "CCOC(=O)c1cc(C#N)c(N2CCC(C(=O)NS(=O)(=O)Cc3ccccc3)CC2)nc1CSCCO",
    "IC50 / µM": 0.037
  },
  {
    "record_smiles": "CCOC(=O)c1cc(C#N)c(N2CC(C(=O)NS(=O)(=O)Cc3ccccc3)C2)nc1CS(C)(=O)=O",
    "IC50 / µM": 0.243
  },
  {
    "record_smiles": "CCOC(=O)c1cc(F)c(N2CCC(C(=O)NS(=O)(=O)Cc3ccccc3)CC2)nc1CN1CCCC1=O",
    "IC50 / µM": 0.079
  },
  {
    "record_smiles": "CCOC(=O)c1cc(C#N)c(N2CCC(C(=O)NS(=O)(=O)Cc3ccc(Cl)cc3)CC2)nc1CN1CCCC1=O",
    "IC50 / µM": 0.011
  }
]

[1] CCOC(=O)c1cc(C#N)c(N2CCC(C(=O)NS(=O)(=O)Cc3ccc(F)cc3Cl)CC2)nc1CN1CCCC1=O
[2] CCOC(=O)c1cc(Cl)c(N2CCC(C(=O)NS(=O)(=O)Cc3ccccc3)CC2)nc1CN1CCCC1=O
[3] CCOC(=O)c1cc(C#N)c(N2CCC(C(=O)NS(=O)(=O)Cc3ccc(C)cc3)CC2)nc1CN1CCCC1=O
[4] CC(C)OC(=O)c1cc(C#N)c(N2CCC(C(=O)NS(=O)(=O)CC3CCCC3)CC2)nc1CN1CCCC1=O
[5] CC(C)OC(=O)c1cc(C#N)c(N2CCC(C(=O)NS(=O)(=O)CC3CCC3)CC2)nc1CN1CCCC1=O
Please produce an ascending ranking of these compounds based on IC50. Show the ranking through the labels, in the order asked for. 3, 1, 2, 4, 5
(3: 0.012 µM, 1: 0.018 µM, 2: 0.041 µM, 4: 0.065 µM, 5: 0.094 µM)
